Origin of the recorded values: patent US20140005163A1

Data export: IC50 values recorded with mTOR (Homo sapiens, UniProt P42345).
Sequence (P42345 1360-2549 limits assumed): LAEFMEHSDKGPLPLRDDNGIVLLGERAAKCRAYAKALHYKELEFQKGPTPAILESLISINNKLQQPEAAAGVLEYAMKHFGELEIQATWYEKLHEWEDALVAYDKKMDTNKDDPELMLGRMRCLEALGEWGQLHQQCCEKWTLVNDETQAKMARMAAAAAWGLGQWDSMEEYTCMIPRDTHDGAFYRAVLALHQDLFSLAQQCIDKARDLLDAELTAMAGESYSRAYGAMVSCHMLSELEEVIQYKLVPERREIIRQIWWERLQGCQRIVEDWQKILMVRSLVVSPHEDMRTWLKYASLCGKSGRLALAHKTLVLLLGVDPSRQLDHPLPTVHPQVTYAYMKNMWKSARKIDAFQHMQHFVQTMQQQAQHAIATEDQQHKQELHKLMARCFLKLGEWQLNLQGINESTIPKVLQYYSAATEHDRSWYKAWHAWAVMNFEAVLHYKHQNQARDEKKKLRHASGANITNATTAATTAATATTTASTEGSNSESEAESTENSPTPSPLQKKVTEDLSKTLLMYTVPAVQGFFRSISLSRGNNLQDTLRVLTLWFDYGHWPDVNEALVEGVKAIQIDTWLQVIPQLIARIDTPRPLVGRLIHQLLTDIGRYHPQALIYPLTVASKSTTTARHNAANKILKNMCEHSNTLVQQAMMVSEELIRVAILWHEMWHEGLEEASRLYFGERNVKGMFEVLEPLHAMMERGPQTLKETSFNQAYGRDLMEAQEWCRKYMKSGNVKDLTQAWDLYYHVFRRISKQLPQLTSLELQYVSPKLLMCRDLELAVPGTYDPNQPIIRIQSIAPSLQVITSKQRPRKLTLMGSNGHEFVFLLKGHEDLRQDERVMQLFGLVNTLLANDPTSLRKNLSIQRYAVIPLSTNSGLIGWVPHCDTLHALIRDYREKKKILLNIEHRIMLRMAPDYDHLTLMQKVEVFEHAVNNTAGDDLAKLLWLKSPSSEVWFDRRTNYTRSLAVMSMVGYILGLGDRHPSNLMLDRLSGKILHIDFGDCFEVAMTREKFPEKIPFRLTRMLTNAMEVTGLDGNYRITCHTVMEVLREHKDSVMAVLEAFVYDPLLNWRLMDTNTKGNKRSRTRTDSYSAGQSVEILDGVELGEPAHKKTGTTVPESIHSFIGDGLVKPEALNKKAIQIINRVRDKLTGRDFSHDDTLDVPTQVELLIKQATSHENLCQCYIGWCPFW
measured_parameter: IC50 (nM)

CCN(C)c1ccc(-c2ccc3ncc4c(c3c2)n(-c2cn(C)nc2C)c(=O)n4C)cn1    20
CCc1ncc(-c2ccc3ncc4c(c3c2)n(-c2cn(C)nc2C)c(=O)n4C)cc1OC(C)C    56
Cc1nn(C)cc1-n1c(=O)n(C)c2cnc3ccc(-c4cccc(S(C)(=O)=O)c4)cc3c21    71
CCN(CC)c1cncc(-c2ccc3ncc4c(c3c2)n(-c2cn(C)nc2C)c(=O)n4C)c1    20
Cc1ncc(-c2ccc3ncc4c(c3c2)n(-c2cn(C)nc2C)c(=O)n4C)cc1N    13

I. Cc1nn(C)cc1-n1c(=O)n(C)c2cnc3ccc(-c4cncc(C(C)O)c4)cc3c21 (racemic)
II. Cc1cc(-n2c(=O)n(C)c3cnc4ccc(-c5cnc(C)c(O)c5)cc4c32)n(C)n1
Prompt line: // which entry reports the smaller IC50, I or II ? Pick one and reply with its label.
Response line: I

A. CCOc1ccc(-c2ccc3ncc4c(c3c2)n(-c2cn(CC(=O)N3CCC3)nc2C)c(=O)n4C)cn1
B. CCOc1cncc(-c2ccc3ncc4c(c3c2)n(-c2cn(C)nc2Cl)c(=O)n4C)c1
C. Cc1nn(C)c(C)c1-n1c(=O)n(C)c2cnc3ccc(-c4cnc(N)c(C(F)(F)F)c4)cc3c21
Prompt line: Put the items in order so that reported IC50 rises from first to last. Answer with the labels in sequence, matching the requested order.
Response line: A, B, C

---

Target: PI3K alpha (Homo sapiens)
Construct: p85(iSH2) fusion partner (see partner chain) (N); His tag (C); Tn5 (Trichoplusia ni) or TiniPro insect cells
Sequence (P42336 with tags, fused parts or gaps limits assumed): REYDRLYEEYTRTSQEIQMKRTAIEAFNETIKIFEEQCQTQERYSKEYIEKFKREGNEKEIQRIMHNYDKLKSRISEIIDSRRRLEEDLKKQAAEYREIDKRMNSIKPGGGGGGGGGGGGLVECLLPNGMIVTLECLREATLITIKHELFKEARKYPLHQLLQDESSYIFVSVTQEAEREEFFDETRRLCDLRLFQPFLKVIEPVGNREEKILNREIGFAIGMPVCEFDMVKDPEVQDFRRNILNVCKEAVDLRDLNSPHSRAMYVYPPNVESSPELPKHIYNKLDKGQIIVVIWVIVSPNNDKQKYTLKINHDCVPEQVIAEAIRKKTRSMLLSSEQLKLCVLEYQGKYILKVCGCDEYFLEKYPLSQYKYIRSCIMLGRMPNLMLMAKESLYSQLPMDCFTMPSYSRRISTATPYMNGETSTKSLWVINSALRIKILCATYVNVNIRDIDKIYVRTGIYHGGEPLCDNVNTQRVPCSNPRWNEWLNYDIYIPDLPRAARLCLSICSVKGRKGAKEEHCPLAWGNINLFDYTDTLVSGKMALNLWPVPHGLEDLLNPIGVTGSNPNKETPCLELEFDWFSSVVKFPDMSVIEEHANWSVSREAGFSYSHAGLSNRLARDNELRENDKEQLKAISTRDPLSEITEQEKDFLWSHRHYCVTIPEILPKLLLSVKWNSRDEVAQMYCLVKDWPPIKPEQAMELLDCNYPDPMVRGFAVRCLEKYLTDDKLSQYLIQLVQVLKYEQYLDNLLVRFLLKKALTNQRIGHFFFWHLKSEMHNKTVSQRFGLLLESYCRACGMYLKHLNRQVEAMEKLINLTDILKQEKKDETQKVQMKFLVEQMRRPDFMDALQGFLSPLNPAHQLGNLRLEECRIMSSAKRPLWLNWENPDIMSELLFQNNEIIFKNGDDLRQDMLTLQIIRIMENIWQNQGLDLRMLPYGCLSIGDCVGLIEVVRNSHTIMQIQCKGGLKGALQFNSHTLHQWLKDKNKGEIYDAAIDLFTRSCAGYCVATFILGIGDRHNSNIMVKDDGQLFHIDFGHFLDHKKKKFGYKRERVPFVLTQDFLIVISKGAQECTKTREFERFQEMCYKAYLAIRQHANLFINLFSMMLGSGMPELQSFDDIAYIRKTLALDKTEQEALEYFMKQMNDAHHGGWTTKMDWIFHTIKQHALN
Assay: PI3K alpha kinase assay (Kinase-Glo luminescence)
pIC50: −log10 of the molar value.
measured_parameter: pIC50

Cc1nn(C)cc1-n1c(=O)n(C)c2cnc3ccc(-c4cncc(C(C)(C)C#N)c4)cc3c21    8.05
Cc1nn(C)cc1-n1c(=O)n(C)c2cnc3ccc(-c4cncc(N(C)S(C)(=O)=O)c4)cc3c21    7.72
Cc1nn(C)cc1-n1c(=O)n(C)c2cnc3ccc(-c4ccc(N(C)C)nc4)cc3c21    7.64

A. CCn1cc(-n2c(=O)n(C)c3cnc4ccc(-c5cncc(C6(C#N)CCC6)c5)cc4c32)c(C)n1
B. CCn1cc(-n2c(=O)n(C)c3cnc4ccc(-c5ccc(COC)nc5)cc4c32)c(C)n1
Prompt line: // returns A or B , whichever has the lower pIC50 // caller expects the label of the chosen entry
Response line: B
(B: 7.10, A: 7.89)

---

Target: PI3K alpha (Homo sapiens)
Construct: p85(iSH2) fusion partner (see partner chain) (N); His tag (C); made in house; host or cells: baculovirus; Tn5 (Trichoplusia ni) or TiniPro insect cells
Experiment: PI3K alpha kinase assay (Kinase-Glo luminescence)
Type: biochemical
measured_parameter: IC50 (nM)

Cc1nn(CC(=O)N(C)C)c(C)c1-n1c(=O)n(C)c2cnc3ccc(-c4cncc(OC5CCC5)c4)cc3c21    315

a. COc1ccc(-c2ccc3ncc4c(c3c2)n(-c2cn(CC(=O)N(C)C)nc2C)c(=O)n4C)cn1
b. CCOc1cncc(-c2ccc3ncc4c(c3c2)n(-c2cn(CC(=O)N(C)C)nc2C)c(=O)n4C)c1
c. CNc1ncc(-c2ccc3ncc4c(c3c2)n(-c2cn(C)nc2Cl)c(=O)n4C)cc1COC
Prompt line: Rank descending by IC50. Answer format: list of labels, ordered as asked.
Response line: b, a, c
(b: 25 nM, a: 13 nM, c: 7 nM)
